system tested: Estrogen receptor (Mus musculus) (UniProt O08537+P19785)
Sequence (O08537 whole entry, looked up): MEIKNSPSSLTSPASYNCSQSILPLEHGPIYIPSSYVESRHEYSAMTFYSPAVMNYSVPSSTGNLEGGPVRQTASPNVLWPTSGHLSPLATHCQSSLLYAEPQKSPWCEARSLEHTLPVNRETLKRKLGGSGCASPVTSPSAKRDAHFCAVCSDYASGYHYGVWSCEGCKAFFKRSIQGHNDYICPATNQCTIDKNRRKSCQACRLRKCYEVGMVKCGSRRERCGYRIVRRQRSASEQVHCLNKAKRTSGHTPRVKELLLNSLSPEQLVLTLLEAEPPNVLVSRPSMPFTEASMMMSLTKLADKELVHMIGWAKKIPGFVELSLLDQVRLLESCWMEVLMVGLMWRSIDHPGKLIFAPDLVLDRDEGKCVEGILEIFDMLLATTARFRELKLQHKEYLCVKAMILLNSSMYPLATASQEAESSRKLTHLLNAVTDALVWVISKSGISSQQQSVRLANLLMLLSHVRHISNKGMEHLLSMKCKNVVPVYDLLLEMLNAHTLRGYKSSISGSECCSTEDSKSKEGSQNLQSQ
Sequence (P19785 whole entry, looked up): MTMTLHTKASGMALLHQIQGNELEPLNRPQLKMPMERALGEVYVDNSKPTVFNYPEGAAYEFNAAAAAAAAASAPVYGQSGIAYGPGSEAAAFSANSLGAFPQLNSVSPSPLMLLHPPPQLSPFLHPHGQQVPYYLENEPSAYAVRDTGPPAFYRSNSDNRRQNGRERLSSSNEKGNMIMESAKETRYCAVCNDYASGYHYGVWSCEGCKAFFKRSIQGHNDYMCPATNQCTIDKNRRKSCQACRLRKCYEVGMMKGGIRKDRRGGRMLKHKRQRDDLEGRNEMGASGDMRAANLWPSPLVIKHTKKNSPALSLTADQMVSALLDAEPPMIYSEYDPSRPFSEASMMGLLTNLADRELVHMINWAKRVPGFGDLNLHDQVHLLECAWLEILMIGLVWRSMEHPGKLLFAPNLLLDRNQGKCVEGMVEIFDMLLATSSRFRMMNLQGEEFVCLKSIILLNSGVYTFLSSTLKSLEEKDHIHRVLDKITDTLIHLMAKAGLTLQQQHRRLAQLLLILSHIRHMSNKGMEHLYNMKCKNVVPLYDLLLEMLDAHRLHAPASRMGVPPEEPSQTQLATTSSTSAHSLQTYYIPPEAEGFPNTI
test method notes: Estrogenic activity in uterotrophic assay in immature mice at 50.0 ug subcutaneous dose
Format: functional
Each record here notes measured Effect.
// return a plain number; no unit text

Take a look at these entries with their results.
compound: CCC1Cc2cc(OC(C)=O)ccc2-c2cc3cc(OC(C)=O)ccc3n21 (centres undefined)
Effect: 45.7
--
compound: CCC1Cn2c(cc3cc(OC(C)=O)ccc32)-c2ccc(OC(C)=O)cc21 (centres undefined)
Effect: 42.5
--
compound: CCC1Cc2cc(OC(C)=O)ccc2-c2cc3ccc(OC(C)=O)cc3n21 (centres undefined)
Effect: 18.5

Output measured Effect for this item: CC(=O)Oc1ccc2c(c1)CC(C)n1c-2cc2cc(OC(C)=O)ccc21 (centres undefined)
61.2
